assay: modulators of HCV replicon luciferase signal, primary screen, HCV replication inhibitor project, Huh7 cells, luciferase reporter (AID 1109); conditions: 48 h, higher = more signal;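 note: huh7 hepatoma cells harbouring a luciferase neomycin HCV replicon reporter; luciferase luminescence as measure of HCV replicon replication; test concentration not given here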
Quick list: z-score per entry.
I'd appreciate a reply containing only the number, no unit.

Check out these entries, answers already filled in.
>  <Compound>
O=C1C[C@@](C(=O)NCC(F)(F)F)(c2ccc([N+](=O)[O-])cc2)[C@@H](c2ccc(CO)cc2I)N1C1CCCCC1

>  <z-score>
-2.54

$$$$
>  <Compound>
COC(=O)[C@@]1(Cc2ccc(OC)cc2)[C@H]2c3cc(C(=O)N(C)C)n(C)c3C[C@H]2CN1C(=O)c1ccccc1

>  <z-score>
-2.62

$$$$
>  <Compound>
COc1ccc(C(=O)Nc2ccc(CN3C(=O)[C@]4(O[C@H](CCO)[C@@H]([Si](C)(C)c5ccc(OC)cc5)[C@@H]4C)c4ccccc43)cc2)cc1

>  <z-score>
-5.09

$$$$
>  <Compound>
C=C[C@H](C)[C@@H](OC(=O)Nc1ccc(OC)cc1)c1ccc(O)c2ccccc12

>  <z-score>
-3.43

$$$$
>  <Compound>
CCCC[C@@H]1C[C@H]1[C@@H](NC(=O)c1ccccc1)c1ccc(C(=O)OC)cc1

>  <z-score>
-1.15

$$$$
>  <Compound>
COCCOC(=O)N1C(=O)[C@@]2(c3cc(C#CC4(O)CCCCCC4)ccc31)[C@H](c1ccccc1OCCO)N1[C@H](c3ccccc3)[C@H](c3ccccc3)OC(=O)[C@H]1[C@@H]2C(=O)N1CCN(c2ncccn2)CC1

>  <z-score>
-2.18

$$$$

(Q) Given the entry `CC(C)CNC(=O)[C@@]1(Cc2ccccc2I)c2ccccc2C(=O)N(C2CCCCC2)[C@H]1c1ccc(CO)cc1` , report its measured z-score.
(A) -1.62

(Q) Given the entry `COCCOC(=O)N1C(=O)[C@@]2(c3ccccc31)[C@H](c1ccc(O)cc1)N1[C@H](c3ccccc3)[C@H](c3ccccc3)OC(=O)[C@H]1[C@@H]2C(=O)Nc1nc2ccccc2s1` , report its measured z-score.
(A) -0.993
